Quick record: pKi, WDR5 (Homo sapiens).
pKi: −log10 of the molar value.
Measured Quantity: pKi

Guide cases for pKi, answers given:
q: Param item = COc1cc(CO)c2nccc(N3CCc4c(cc(Cn5ccnc5)cc4-c4cn(C)nc4C(F)(F)F)C3=O)c2c1 [Example 94] ; retrieve measured pKi.
a: 10.41

q: Param item = COc1cnc2cc(C)cc(N3CCc4c(cc(Cn5ccnc5N)cc4-c4cn(C)nc4C(F)(F)F)C3=O)c2c1 [Example 221] ; retrieve measured pKi.
a: 10.62

(a) Cc1ccc2cncc(N3CCc4c(cc(C(O)c5cn(C)cn5)cc4-c4cn(C)nc4C(F)(F)F)C3=O)c2c1 (centres unmarked) [Example 57]
(b) COc1cc(C)cc2c(N3CCc4c(cc(Cn5ccnc5)cc4-c4cn(C)nc4C(F)(F)F)C3=O)ccnc12 [Example 19]
q: Please state the entry with greater pKi among a and b . Mark your answer with the label of the selected entry.
a: b
